List of pEC50 values.
Target: GPBAR1 (Homo sapiens, UniProt Q8TDU6)
Sequence (Q8TDU6 whole entry): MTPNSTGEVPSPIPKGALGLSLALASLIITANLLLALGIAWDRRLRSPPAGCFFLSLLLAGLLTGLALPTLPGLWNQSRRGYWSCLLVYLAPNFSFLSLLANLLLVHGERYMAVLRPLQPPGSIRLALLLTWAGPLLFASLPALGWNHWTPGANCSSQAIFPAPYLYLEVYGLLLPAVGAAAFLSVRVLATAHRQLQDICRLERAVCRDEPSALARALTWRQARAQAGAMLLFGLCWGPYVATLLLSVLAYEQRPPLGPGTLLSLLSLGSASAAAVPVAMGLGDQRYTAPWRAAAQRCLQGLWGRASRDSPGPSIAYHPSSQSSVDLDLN
Assay: GPBAR1 transactivation, CRE-luciferase reporter assay in HEK-293T cells
Conditions: dose-response 1-50 μM, mean ± SE of 3 experiments in duplicate, read-out: GPBAR1 Affinity (EC50)
pEC50: −log10 of the molar value.

[
  {
    "compound": "CC[C@@H](C)[C@H]1CCC2C3CC[C@H]4C[C@@H](O)CC[C@]4(C)C3CC[C@@]21C (some centres unmarked)",
    "pEC50": 5.70
  },
  {
    "compound": "CCCC[C@@H](C)[C@H]1CCC2C3CC[C@@H]4C[C@H](O)CC[C@]4(C)C3CC[C@@]21C (some centres unmarked)",
    "pEC50": 5.17
  },
  {
    "compound": "C=CCC(C)C1CCC2C3CC(O)C4CC(O)CCC4(C)C3CCC12C (centres unmarked)",
    "pEC50": 5.43
  },
  {
    "compound": "C=CCC[C@@H](C)[C@H]1CCC2C3CC[C@H]4C[C@@H](O)CC[C@]4(C)C3CC[C@@]21C (some centres unmarked)",
    "pEC50": 6.00
  },
  {
    "compound": "CC(C)=CCC[C@@H](C)[C@H]1CCC2C3CC[C@@H]4C[C@H](O)CC[C@]4(C)C3CC[C@@]21C (some centres unmarked)",
    "pEC50": 5.23
  },
  {
    "compound": "CC[C@@H](C)[C@H]1CCC2C3CC[C@@H]4C[C@H](O)CC[C@]4(C)C3CC[C@@]21C (some centres unmarked)",
    "pEC50": 6.04
  },
  {
    "compound": "CC(C)=CCC[C@@H](C)[C@H]1CCC2C3CC[C@H]4C[C@@H](O)CC[C@]4(C)C3CC[C@@]21C (some centres unmarked)",
    "pEC50": 5.12
  },
  {
    "compound": "C=C[C@@H](C)[C@H]1CCC2C3CC[C@H]4C[C@@H](O)CC[C@]4(C)C3CC[C@@]21C (some centres unmarked)",
    "pEC50": 5.31
  },
  {
    "compound": "CC(C)=CCC(C)C1CCC2C3CC(O)C4CC(O)CCC4(C)C3CCC12C (centres unmarked)",
    "pEC50": 5.38
  },
  {
    "compound": "CC(C)CCC(C)C1CCC2C3CC(O)C4CC(O)CCC4(C)C3CCC12C (centres unmarked)",
    "pEC50": 5.31
  },
  {
    "compound": "C=CC(C)C1CCC2C3CC(O)C4CC(O)CCC4(C)C3CCC12C (centres unmarked)",
    "pEC50": 5.60
  }
]
